Tested on: Plasmodium falciparum
Assay: Screen against P. falciparum Asexual Blood Stage (ABS), at 5uM
Format: functional, Dd2
Details: tested at 5 uM
Out of some 65,000 compounds screened, about 2,100 (3.2%) showed an effect of 50% or more. The median lay at about -52%. The list comes from a sample in which strong results are over-represented; it also holds close analogues and randomly drawn compounds.
Decide by INHIBITION: equal to or exceeding -60% means 1, less means -1.

Decide: INHIBITION of Cc1ccccc1C(C(=O)NCCSC(F)(F)F)N(C)C (centres undefined) >= -60%?
1

Decide: INHIBITION of CC(Cn1cccn1)NC(=O)NCc1ccc(OC2CCCC2)nc1 (centres undefined) >= -60%?
-1

Decide: INHIBITION of Cc1nc(CN2CC(Cc3ccccc3)CC2=O)no1 (centres undefined) >= -60%?
1

Decide: INHIBITION of Cc1noc(C(C)C)c1C(=O)NCC1CCN(c2ccccc2)C1 (centres undefined) >= -60%?
1

Decide: INHIBITION of Cc1ccccc1C(C(=O)NCCSC(C)C)N(C)C (centres undefined) >= -60%?
1

Decide: INHIBITION of Cc1nc(NCc2cccnc2)cc(C2COCCN2)n1 (centres undefined) >= -60%?
-1

Decide: INHIBITION of O=C(NC1CCCC1)c1nc(COc2ccc3c(c2)OCO3)no1 >= -60%?
-1

Decide: INHIBITION of CNC(=O)COC1COC2(CCN(Cc3ccncc3F)CC2)C1 (centres undefined) >= -60%?
-1

Decide: INHIBITION of c1cnc(Nc2cc(CCC3CCNCC3)ccn2)cn1 >= -60%?
1

Decide: INHIBITION of Cn1c(CCC(=O)N2CCCC3(CC2)CNC(=O)O3)nc2cccnc21 (centres undefined) >= -60%?
1

Decide: INHIBITION of Cc1cnn(C2CN(Cc3nnc(Cc4ccccc4)o3)C2)c1 >= -60%?
1

Decide: INHIBITION of CC(=O)N1CCC(NCc2cccnc2N(C)Cc2ccccc2)CC1 >= -60%?
1

Decide: INHIBITION of Cc1ncc2c(n1)CN(Cc1nnc(Cc3ccccc3)o1)CC2 >= -60%?
1

Decide: INHIBITION of Cc1noc(C)c1C(=O)NCC1CCCCN1Cc1ccccc1 (centres undefined) >= -60%?
1

Decide: INHIBITION of CCc1ccc(C(CNC(=O)c2c(C)noc2C)N(C)C)cc1 (centres undefined) >= -60%?
-1

Decide: INHIBITION of c1ccc(Cc2nnc(CN3CCc4cncnc4C3)o2)cc1 >= -60%?
1

Decide: INHIBITION of c1ccc(Cc2noc(CN3CCc4cncnc4C3)n2)cc1 >= -60%?
1

Decide: INHIBITION of c1ncc2c(n1)CN(Cc1nc(-c3ccsc3)no1)CC2 >= -60%?
1

Decide: INHIBITION of O=C1CC(c2ccccc2)c2cnn(C3CCCC3)c2N1 (centres undefined) >= -60%?
-1

Decide: INHIBITION of CN(C)CCNC(=O)c1sccc1N(C)S(=O)(=O)c1ccc(Cl)cc1 >= -60%?
1

Decide: INHIBITION of Cn1nc(C2CCCN(Cc3ccccc3)C2)c2nccnc21 (centres undefined) >= -60%?
1

Decide: INHIBITION of COc1ccc(-c2nc(CCNC(=O)NC3CCC(O)CC3)co2)cc1 (centres undefined) >= -60%?
1

Decide: INHIBITION of c1ncc2c(n1)CN(Cc1nc(-c3ccc4c(c3)OCO4)no1)CC2 >= -60%?
1
